Assayed system: Alpha-2A adrenergic receptor (Homo sapiens, UniProt P08913); further: assay procedure not described here
Sequence (P08913 whole entry): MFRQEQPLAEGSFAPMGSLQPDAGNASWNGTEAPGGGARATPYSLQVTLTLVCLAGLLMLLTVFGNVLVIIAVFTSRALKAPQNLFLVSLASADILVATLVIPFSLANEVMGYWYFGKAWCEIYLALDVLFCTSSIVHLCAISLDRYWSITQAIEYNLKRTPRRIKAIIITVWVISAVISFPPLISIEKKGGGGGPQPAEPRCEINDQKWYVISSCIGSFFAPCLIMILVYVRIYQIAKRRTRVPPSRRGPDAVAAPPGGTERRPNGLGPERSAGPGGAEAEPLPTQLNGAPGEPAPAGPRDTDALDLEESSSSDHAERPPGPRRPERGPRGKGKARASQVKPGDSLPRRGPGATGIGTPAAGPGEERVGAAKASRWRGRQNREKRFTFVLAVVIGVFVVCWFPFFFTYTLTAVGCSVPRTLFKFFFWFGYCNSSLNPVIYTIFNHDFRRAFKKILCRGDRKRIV
Observation type: AC50

Recall and state the measured AC50 for `CC[C@H]1OC(=O)[C@H](C)[C@@H](O[C@H]2C[C@@](C)(OC)[C@@H](O)[C@H](C)O2)[C@H](C)[C@@H](O[C@@H]2O[C@H](C)C[C@H](N(C)C)[C@H]2O)[C@](C)(O)C[C@@H](C)CN(C)[C@H](C)[C@@H](O)[C@]1(C)O` . > 10 µM

Recall and state the measured AC50 for Cn1nnc2c(C(N)=O)ncn2c1=O [TEMOZOLOMIDE] . > 10 µM

Recall and state the measured AC50 for `CS(=O)(=O)c1ccc(C2=C(c3ccccc3)C(=O)OC2)cc1` . > 10 µM

Recall and state the measured AC50 for `CCCc1nc(C(C)(C)O)c(C(=O)OCc2oc(=O)oc2C)n1Cc1ccc(-c2ccccc2-c2nnn[nH]2)cc1` . > 10 µM

Recall and state the measured AC50 for O=[N+]([O-])O[C@@H]1CO[C@H]2[C@@H]1OC[C@@H]2O [ISOSORBIDE MONONITRATE] . > 10 µM

Recall and state the measured AC50 for `CCCCc1ncc(/C=C(\Cc2cccs2)C(=O)O)n1Cc1ccc(C(=O)O)cc1` . > 10 µM

Recall and state the measured AC50 for COc1ccccc1OCC(O)CN1CCN(CC(=O)Nc2c(C)cccc2C)CC1 (configuration not stated) . 13 µM

Recall and state the measured AC50 for COc1cccc(C2(O)CCCCC2CN(C)C)c1 (configuration not stated) . > 10 µM

Recall and state the measured AC50 for `Cc1cn([C@H]2C[C@H](N=[N+]=[N-])[C@@H](CO)O2)c(=O)[nH]c1=O` . > 10 µM

Recall and state the measured AC50 for CC1=C(C(=O)O)N2C(=O)[C@@H](NC(=O)[C@H](N)c3ccccc3)[C@H]2SC1 [CEPHALEXIN ANHYDROUS] . > 10 µM

Recall and state the measured AC50 for `N#Cc1ccc([C@H]2CCc3cncn32)c(F)c1` . > 10 µM

Recall and state the measured AC50 for CCOc1ccccc1OCC1CNCCO1 (configuration not stated) . > 10 µM

Recall and state the measured AC50 for CCC(C)n1ncn(-c2ccc(N3CCN(c4ccc(OCC5COC(Cn6cncn6)(c6ccc(Cl)cc6Cl)O5)cc4)CC3)cc2)c1=O (configuration not stated) . > 10 µM

Recall and state the measured AC50 for `CCOc1ccc(Cc2cc([C@@H]3O[C@H](CO)[C@@H](O)[C@H](O)[C@H]3O)ccc2Cl)cc1` . 8.66 µM

Recall and state the measured AC50 for `CCCCCNC(=N)N/N=C/c1c[nH]c2ccc(OC)cc12` . 0.31 µM

Recall and state the measured AC50 for Cc1c(OCC(F)(F)F)ccnc1C[S+]([O-])c1nc2ccccc2[nH]1 (configuration not stated) . > 10 µM

Recall and state the measured AC50 for NCC(CC(=O)O)c1ccc(Cl)cc1 (configuration not stated) . > 10 µM

Recall and state the measured AC50 for `CN1CCC(=C2c3ccccc3CCc3sccc32)CC1` . 0.577 µM

Recall and state the measured AC50 for `Cc1ccc(-c2cc(C(F)(F)F)nn2-c2ccc(S(N)(=O)=O)cc2)cc1` . > 10 µM

Recall and state the measured AC50 for `CN1CCN(CC/C=C2/c3ccccc3Sc3ccc(S(=O)(=O)N(C)C)cc32)CC1` . 0.755 µM

Recall and state the measured AC50 for COc1ccc(C(=O)Nc2ccccc2CCC2CCCCN2C)cc1 (configuration not stated) [ENCAINIDE] . > 10 µM

Recall and state the measured AC50 for CN(C)CCC(c1ccc(Cl)cc1)c1ccccn1 (configuration not stated) . > 10 µM

Recall and state the measured AC50 for CCCN(CCC)C(=O)C(CCC(=O)O)NC(=O)c1ccccc1 (configuration not stated) [PROGLUMIDE] . > 10 µM

Recall and state the measured AC50 for C[C@]12CCC(=O)C=C1CC[C@@H]1[C@@H]2[C@@H](O)C[C@@]2(C)[C@H]1CC[C@]2(O)C(=O)CO [HYDROCORTISONE] . > 10 µM

Recall and state the measured AC50 for `CC(C)(C)c1cc(C(C)(C)C)c(NC(=O)c2c[nH]c3ccccc3c2=O)cc1O` . > 10 µM

Recall and state the measured AC50 for `CCOC(=O)[C@H](CCc1ccccc1)N[C@@H](C)C(=O)N1[C@H](C(=O)O)C[C@@H]2CCC[C@@H]21` . > 10 µM

Recall and state the measured AC50 for `O=[N+]([O-])c1cn2c(n1)OC[C@@H](OCc1ccc(OC(F)(F)F)cc1)C2` . > 10 µM

###

Answer each item with its documented AC50.
Assayed system: Thromboxane A2 receptor (Homo sapiens, UniProt P21731); further: assay procedure not described here
Sequence (P21731 whole entry): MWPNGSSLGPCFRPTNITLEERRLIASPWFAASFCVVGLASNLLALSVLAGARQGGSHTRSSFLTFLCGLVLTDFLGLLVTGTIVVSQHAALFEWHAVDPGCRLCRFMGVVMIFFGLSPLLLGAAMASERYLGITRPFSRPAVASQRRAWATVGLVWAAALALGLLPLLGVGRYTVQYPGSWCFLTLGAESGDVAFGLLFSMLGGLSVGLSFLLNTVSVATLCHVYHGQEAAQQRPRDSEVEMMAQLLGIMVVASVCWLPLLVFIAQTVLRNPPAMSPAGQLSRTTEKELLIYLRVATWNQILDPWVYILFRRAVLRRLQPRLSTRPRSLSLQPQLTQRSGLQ
Type: functional, cell-based

Recall and state the measured AC50 for NC1CCN(c2c(F)cc3c(=O)c(C(=O)O)cn(C4CC4)c3c2Cl)C1 (stereo not drawn) . > 30 µM

Recall and state the measured AC50 for `CCOC(=O)[C@H](CCc1ccccc1)N[C@@H](C)C(=O)N1[C@H](C(=O)O)C[C@H]2CCCC[C@@H]21` . > 30 µM

Recall and state the measured AC50 for `OC[C@@H](O)[C@H](O)[C@@H](O)CO` . > 30 µM

Recall and state the measured AC50 for CC(C)(C)C(=O)C(Oc1ccc(Cl)cc1)n1ccnc1 (stereo not drawn) . > 30 µM

Recall and state the measured AC50 for O=C(Oc1ccc2c(c1)CCCN2C(=O)C(Cl)Cl)c1ccco1 [QUINFAMIDE] . > 30 µM

Recall and state the measured AC50 for CC(=O)OCC(=O)[C@@]1(O)CC[C@H]2[C@@H]3CCC4=CC(=O)C=C[C@]4(C)[C@@]3(Cl)[C@@H](Cl)C[C@@]21C [DICHLORISONE ACETATE] . > 30 µM

Recall and state the measured AC50 for `Cc1cccc(Nc2ccccc2C(=O)O)c1C` . > 30 µM

Recall and state the measured AC50 for `CC(C)COC(=O)OCN1C(=O)CN(CCN2CC(=O)N(COC(=O)OCC(C)C)C(=O)C2)CC1=O` . > 30 µM

###

Answer each item with its documented AC50.
Assayed system: Muscarinic acetylcholine receptor M1 (Homo sapiens); further: assay procedure not described here
Sequence (P11229 whole entry): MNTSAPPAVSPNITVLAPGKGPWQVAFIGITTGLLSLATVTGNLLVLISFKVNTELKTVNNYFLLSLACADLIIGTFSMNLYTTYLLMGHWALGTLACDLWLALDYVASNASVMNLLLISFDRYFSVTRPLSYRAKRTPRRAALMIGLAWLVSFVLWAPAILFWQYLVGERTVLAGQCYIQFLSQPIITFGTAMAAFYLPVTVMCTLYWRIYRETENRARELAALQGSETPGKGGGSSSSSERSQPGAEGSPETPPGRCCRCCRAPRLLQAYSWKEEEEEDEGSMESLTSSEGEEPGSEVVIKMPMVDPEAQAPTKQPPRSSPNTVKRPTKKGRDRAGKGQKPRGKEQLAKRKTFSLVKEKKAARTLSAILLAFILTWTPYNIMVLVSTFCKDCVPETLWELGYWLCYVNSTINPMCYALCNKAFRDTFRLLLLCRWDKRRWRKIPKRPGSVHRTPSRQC
Type: functional, cell-based

Provide the reported AC50 (system: Muscarinic acetylcholine receptor M1 (Homo sapiens)) for CCN(CC)CCNc1ccc(CO)c2sc3ccccc3c(=O)c12 [HYCANTHONE] 17.6 µM

Provide the reported AC50 (system: Muscarinic acetylcholine receptor M1 (Homo sapiens)) for NC(=O)C[C@H](N)C(=O)O [ASPARAGINE] > 30 µM

Provide the reported AC50 (system: Muscarinic acetylcholine receptor M1 (Homo sapiens)) for CC[C@H]1CN2CC[C@H]1C[C@H]2[C@H](O)c1ccnc2ccc(OC)cc12 [HYDROQUININE] > 30 µM

Provide the reported AC50 (system: Muscarinic acetylcholine receptor M1 (Homo sapiens)) for `CCC(CC)(CC(=O)Nc1cccc(/C=C/c2nc(C3CCC3)cs2)c1)C(=O)O` > 3 µM

Provide the reported AC50 (system: Muscarinic acetylcholine receptor M1 (Homo sapiens)) for CN(C)CCn1nnnc1SCC1=C(C(=O)O)N2C(=O)[C@@H](NC(=O)Cc3csc(N)n3)[C@H]2SC1 [CEFOTIAM] > 30 µM

Provide the reported AC50 (system: Muscarinic acetylcholine receptor M1 (Homo sapiens)) for Cc1cc(NS(=O)(=O)c2ccc(N)cc2)nc(C)n1 [SULFISOMIDINE] > 30 µM

Provide the reported AC50 (system: Muscarinic acetylcholine receptor M1 (Homo sapiens)) for CC(=O)OCC(=O)[C@@]1(O)CC[C@H]2[C@@H]3CCC4=CC(=O)C=C[C@]4(C)[C@@]3(Cl)[C@@H](Cl)C[C@@]21C [DICHLORISONE ACETATE] > 30 µM

Provide the reported AC50 (system: Muscarinic acetylcholine receptor M1 (Homo sapiens)) for CCOc1ccc(Cc2cc([C@@H]3O[C@H](CO)[C@@H](O)[C@H](O)[C@H]3O)ccc2Cl)cc1 [DAPAGLIFLOZIN] > 30 µM

Provide the reported AC50 (system: Muscarinic acetylcholine receptor M1 (Homo sapiens)) for O=[N+]([O-])O[C@@H]1CO[C@H]2[C@@H]1OC[C@@H]2O [ISOSORBIDE MONONITRATE] > 30 µM

Provide the reported AC50 (system: Muscarinic acetylcholine receptor M1 (Homo sapiens)) for CCOC(=O)[C@H](CCc1ccccc1)N[C@@H](C)C(=O)N1[C@H](C(=O)O)C[C@H]2CCCC[C@@H]21 [TRANDOLAPRIL] > 30 µM

Provide the reported AC50 (system: Muscarinic acetylcholine receptor M1 (Homo sapiens)) for O=C(O)c1cc(O)ccc1O [GENTISIC ACID] > 30 µM

Provide the reported AC50 (system: Muscarinic acetylcholine receptor M1 (Homo sapiens)) for CC1(C)NC(=O)N(c2ccc([N+](=O)[O-])c(C(F)(F)F)c2)C1=O [NILUTAMIDE] > 3 µM

Provide the reported AC50 (system: Muscarinic acetylcholine receptor M1 (Homo sapiens)) for O=C(Oc1ccc2c(c1)CCCN2C(=O)C(Cl)Cl)c1ccco1 [QUINFAMIDE] 15.4 µM

Provide the reported AC50 (system: Muscarinic acetylcholine receptor M1 (Homo sapiens)) for CCN(CC)CCc1nc(-c2ccccc2)no1 [OXOLAMINE] > 30 µM

Provide the reported AC50 (system: Muscarinic acetylcholine receptor M1 (Homo sapiens)) for Oc1c(Cl)cc(Cl)c2cccnc12 [CHLOROXINE] > 30 µM

Provide the reported AC50 (system: Muscarinic acetylcholine receptor M1 (Homo sapiens)) for C[N+]1(CCCCC[N+]2(C)CCCC2)CCCC1 [PENTOLINIUM] > 30 µM

Provide the reported AC50 (system: Muscarinic acetylcholine receptor M1 (Homo sapiens)) for N=c1ccn2c(n1)O[C@H]1[C@H](O)[C@@H](CO)O[C@H]12 [ANCITABINE] > 30 µM

Provide the reported AC50 (system: Muscarinic acetylcholine receptor M1 (Homo sapiens)) for OCCN1C[C@H](O)[C@@H](O)[C@H](O)[C@H]1CO [MIGLITOL] > 30 µM

Provide the reported AC50 (system: Muscarinic acetylcholine receptor M1 (Homo sapiens)) for CN(C)CCN1C(=O)c2ccccc2N(C)c2ccccc21 [DIBENZEPIN] > 30 µM

Provide the reported AC50 (system: Muscarinic acetylcholine receptor M1 (Homo sapiens)) for NNc1nnc(NN)c2ccccc12 [DIHYDRALAZINE] > 30 µM

Provide the reported AC50 (system: Muscarinic acetylcholine receptor M1 (Homo sapiens)) for `CC[C@@H](C(N)=O)N1CCCC1=O` > 30 µM

Provide the reported AC50 (system: Muscarinic acetylcholine receptor M1 (Homo sapiens)) for CC(=O)N[C@@H]1[C@@H](O)[C@H](O)[C@@H](CO)O[C@H]1O [N-ACETYLGLUCOSAMINE] > 30 µM

Provide the reported AC50 (system: Muscarinic acetylcholine receptor M1 (Homo sapiens)) for O=C(Nc1ccc(Cl)cc1)Nc1ccc(Cl)c(Cl)c1 [TRICLOCARBAN] 0.702 µM
